system: Mus musculus; test: Toxicity in mouse assessed as induction of spontaneous locomotor activity at 1 mg/kg, ip after 10 mins by actophotometry; assay type: organism-based; design: dose 1 mg/kg, route intraperitoneal; conditions: in vivo
readout type: Activity

*Q* State, in one line, measured Activity of "CC(=O)c1cccc(NC(=O)c2cnc3ccccc3n2)c1"
*A* Non-toxic

*Q* State, in one line, measured Activity of "Cc1ccc(NC(=O)c2cnc3ccccc3n2)cc1"
*A* Non-toxic

*Q* State, in one line, measured Activity of "O=C(Nc1ccccc1)c1cnc2ccccc2n1"
*A* Non-toxic

*Q* State, in one line, measured Activity of "O=C(Nc1cccc(Cl)c1)c1cnc2ccccc2n1"
*A* Non-toxic

*Q* State, in one line, measured Activity of "O=C(Nc1ccccc1NC(=O)c1cnc2ccccc2n1)c1ccccc1"
*A* Non-toxic

New cases:
*Q* State, in one line, measured Activity of "Cc1c(Cl)cccc1NC(=O)c1cnc2ccccc2n1"
*A* Non-toxic
